meta.source: patent US9303009B2

% of migration relative to DMSO control listing for selected molecules.
system: H929 multiple myeloma cells; assay: multiple myeloma transwell migration towards SDF-1α; type: cell-based; conditions: 250 μM, pretreatment 8 h, transmigration 6 h

smiles-str	% of migration relative to DMSO control [%]
CCNC(=O)O[C@H]1[C@H](C)/C=C(/C)COCCCCC/C=C/[C@@H]1OC	5.51
CNC(=O)CO[C@H]1[C@H](C)/C=C(/C)COCCCCC/C=C/[C@@H]1OC	4.06
CO[C@H]1/C=C/CCCCCOC/C(C)=C\[C@@H](C)[C@@H]1OCCO	0.98
COC(=O)CO[C@H]1[C@H](C)/C=C(/C)COCCCCC/C=C/[C@@H]1OC	7.08

----------
// reported Estimated lethal doses (LD50) per item
Tested on: multiple myeloma (RPMI8226, MM1S, ARP-GL, CAG-GL, OPM2-GL, SKO-007-GL, U266-GL, MM1R cells)
Assay: toxicity by alamarBlue, multiple myeloma cell lines
Format: cell-based, human
Details: mean of 8 cell lines, 48 h exposure
Experimental: The toxicity of compounds 42-45 and their IC50 was determined on a panel of human tumor cell lines of multiple myeloma (RPMI8226, MM1S, MM1R, ARP-GL, CAG-GL, OPM2-GL, SKO-007-GL, U266-GL,) and lung cancer (H299-GL, H522-GL, H647-GL, A549-GL, A549-GL, HI993, H1075-GL, HI373, H17030) origin. […] The fluorescence intensity was measured using a Synergy H1 Microplate Reader (Biotek Inc, Winooski, VT) and a dose-response curve established for IC50 determination.

compound	Estimated lethal doses (LD50) (µM)
COC(=O)CO[C@H]1[C@H](C)/C=C(/C)COCCCCC/C=C/[C@@H]1OC [Compound 42]	476.4
CO[C@H]1/C=C/CCCCCOC/C(C)=C\[C@@H](C)[C@@H]1OCCO [Compound 43]	406.1
CO[C@H]1/C=C/CCCCCOC/C(C)=C\[C@@H](C)[C@@H]1O [ME, migrastatin ether]	881.7
CCNC(=O)O[C@H]1[C@H](C)/C=C(/C)COCCCCC/C=C/[C@@H]1OC [Compound 45]	217.3
CO[C@H]1/C=C/CCCCCOC/C(C)=C\[C@@H](C)[C@@H]1OCC(=O)O [CME, Carboxymethyl migraether]	452.9
CNC(=O)CO[C@H]1[C@H](C)/C=C(/C)COCCCCC/C=C/[C@@H]1OC [Compound 44]	210.6

----------
assay: mouse pharmacokinetics, plasma HPLC-MS/MS; type: in vivo, mice (B6D2F1); conditions: both sexes, B6D2F1, plasma, ip, 20 mg/kg in 2% GDM-12

smiles-str	AUC(0-inf)
CO[C@H]1/C=C/CCCCCOC/C(C)=C\[C@@H](C)[C@@H]1OCC(=O)O	27900 ng·h/mL

----------
assay: mouse pharmacokinetics, plasma HPLC-MS/MS; assay type: in vivo, mice (B6D2F1); details: both sexes, B6D2F1, plasma, iv, 20 mg/kg in 2% GDM-12, read-out: AUC0-24 hr

compound	AUC(0-t) (ng·h/mL)
CO[C@H]1/C=C/CCCCCOC/C(C)=C\[C@@H](C)[C@@H]1OCC(=O)O [CME, Carboxymethyl migraether]	35700

----------
assay: mouse pharmacokinetics, plasma HPLC-MS/MS; type: in vivo, mice (B6D2F1); settings: both sexes, B6D2F1, plasma, iv, 20 mg/kg in 2% GDM-12, read-out: Half-life (t1/2) (converted)

compound	half-life, h
CO[C@H]1/C=C/CCCCCOC/C(C)=C\[C@@H](C)[C@@H]1OCC(=O)O [CME, Carboxymethyl migraether]	2.9
